Hi there, I'd appreciate the recorded Ki for every entry that follows.
Target: UniProt:P21918
Sequence (P21918 whole entry): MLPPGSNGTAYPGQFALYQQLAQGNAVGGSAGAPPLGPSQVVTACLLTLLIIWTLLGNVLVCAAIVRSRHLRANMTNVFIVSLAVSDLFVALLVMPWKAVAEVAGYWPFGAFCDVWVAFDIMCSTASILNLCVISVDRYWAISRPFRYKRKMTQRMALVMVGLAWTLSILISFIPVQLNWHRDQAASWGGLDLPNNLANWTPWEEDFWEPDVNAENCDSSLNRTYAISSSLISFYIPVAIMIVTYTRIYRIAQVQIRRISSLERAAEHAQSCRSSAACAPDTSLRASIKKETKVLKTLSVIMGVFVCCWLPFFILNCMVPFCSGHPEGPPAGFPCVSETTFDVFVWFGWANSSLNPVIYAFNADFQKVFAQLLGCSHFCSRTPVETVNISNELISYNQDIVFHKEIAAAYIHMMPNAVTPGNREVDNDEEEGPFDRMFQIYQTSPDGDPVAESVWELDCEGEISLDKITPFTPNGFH
Test: Binding affinity to dopamine D5 receptor
# value in nM; strip the unit string

IN: Recorded Ki of CN1CCc2cc(Cl)c(O)cc2[C@@H](c2ccc(CN(C3CCC3)S(C)(=O)=O)cc2)C1 , please.
OUT: 5.9

IN: Recorded Ki of CCS(=O)(=O)Nc1ccc2c(c1)CC[C@H]1[C@H]2c2cc(O)c(Cl)cc2CCN1C , please.
OUT: 5.6

IN: Recorded Ki of CN1CCc2cc(Cl)c(O)cc2[C@@H](c2ccc(CNC3CCC3)cc2)C1 , please.
OUT: 3.9

----------
Target: D(1A) dopamine receptor (Homo sapiens, UniProt P21728)
Sequence (P21728 whole entry): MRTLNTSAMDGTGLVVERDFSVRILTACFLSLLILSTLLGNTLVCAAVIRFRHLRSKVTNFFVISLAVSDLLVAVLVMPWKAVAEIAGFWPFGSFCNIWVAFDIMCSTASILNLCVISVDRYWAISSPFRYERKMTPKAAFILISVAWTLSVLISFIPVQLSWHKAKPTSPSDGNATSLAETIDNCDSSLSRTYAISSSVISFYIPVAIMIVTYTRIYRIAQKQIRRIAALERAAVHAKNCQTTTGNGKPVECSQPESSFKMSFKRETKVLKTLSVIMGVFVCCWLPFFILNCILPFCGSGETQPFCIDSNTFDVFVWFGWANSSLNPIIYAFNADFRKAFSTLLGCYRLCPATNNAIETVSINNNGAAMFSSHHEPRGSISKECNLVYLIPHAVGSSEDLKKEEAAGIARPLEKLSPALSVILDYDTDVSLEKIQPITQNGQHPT
Test: Binding affinity to dopamine D1 receptor
Hi there, I'd appreciate the recorded Ki for every entry that follows.
# value in nM; strip the unit string

IN: Recorded Ki of CN1CCc2cc(Cl)c(O)cc2[C@H]2c3ccc(NC(=O)C4CC4)cc3CC[C@@H]21 , please.
OUT: 2.3

IN: Recorded Ki of CN1CCc2cc(Cl)c(O)cc2[C@H]2c3cc(CN4CCCCC4)ccc3CC[C@@H]21 , please.
OUT: 225

IN: Recorded Ki of CN1CCc2cc(Cl)c(O)cc2[C@@H](c2ccc(CN(C3CCC3)S(C)(=O)=O)cc2)C1 , please.
OUT: 0.5

IN: Recorded Ki of CCS(=O)(=O)Nc1cccc2c1CC[C@H]1[C@H]2c2cc(O)c(Cl)cc2CCN1C , please.
OUT: 5.8

----------
Target: D(2) dopamine receptor (Homo sapiens, UniProt P14416)
Sequence (P14416 whole entry): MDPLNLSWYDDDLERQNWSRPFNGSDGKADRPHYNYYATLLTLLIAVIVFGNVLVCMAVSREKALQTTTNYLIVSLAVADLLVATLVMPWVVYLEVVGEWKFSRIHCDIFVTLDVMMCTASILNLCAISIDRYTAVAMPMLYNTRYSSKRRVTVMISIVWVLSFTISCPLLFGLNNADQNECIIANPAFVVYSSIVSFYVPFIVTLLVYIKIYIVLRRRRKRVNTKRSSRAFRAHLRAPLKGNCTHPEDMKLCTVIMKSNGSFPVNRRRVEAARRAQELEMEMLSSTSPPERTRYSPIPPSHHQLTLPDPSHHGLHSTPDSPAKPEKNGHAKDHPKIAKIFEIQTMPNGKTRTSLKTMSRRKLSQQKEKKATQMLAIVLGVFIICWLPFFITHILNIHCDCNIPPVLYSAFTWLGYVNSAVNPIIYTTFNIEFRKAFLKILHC
Assay: Binding affinity to dopamine D2 receptor
Hi there, I'd appreciate the recorded pKi for every entry that follows.
# pKi: negative log10 of molar concentration; output just the value

IN: Recorded pKi of CN1CCc2cc(Cl)c(O)cc2[C@H]2c3ccc(NS(C)(=O)=O)cc3CC[C@@H]21 , please.
OUT: 5.52

IN: Recorded pKi of CCOC(=O)Nc1ccc2c(c1)CC[C@H]1[C@H]2c2cc(O)c(Cl)cc2CCN1C , please.
OUT: 5.41

IN: Recorded pKi of CN1CCc2cc(Cl)c(O)cc2[C@@H](c2ccc(CNc3ccccc3)cc2)C1 , please.
OUT: 5.70

IN: Recorded pKi of CN1CCc2cc(Cl)c(O)cc2[C@H]2c3cccc(NS(C)(=O)=O)c3CC[C@@H]21 , please.
OUT: 6.00

IN: Recorded pKi of CCNC(=O)Nc1cccc2c1CC[C@H]1[C@H]2c2cc(O)c(Cl)cc2CCN1C , please.
OUT: 6.05

----------
Target: D(2) dopamine receptor (Homo sapiens)
Test: Binding affinity to dopamine D2 receptor
pKi: −log10 of the molar value.
Label rule, in plain words: pKi of 6 and up is Condition met, under 6 is Condition not met.

IN: Is pKi at least 6? Consider CN1CCc2cc(Cl)c(O)cc2[C@@H](c2ccc(CN(Cc3ccccc3)c3ccc(F)cc3F)cc2)C1
OUT: Condition met

IN: Is pKi at least 6? Consider CCNC(=O)Nc1ccc2c(c1)CC[C@H]1[C@H]2c2cc(O)c(Cl)cc2CCN1C
OUT: Condition not met

IN: Is pKi at least 6? Consider CN1CCc2cc(Cl)c(O)cc2[C@H]2c3ccc(N)cc3CC[C@@H]21
OUT: Condition not met

IN: Is pKi at least 6? Consider CN1CCc2cc(Cl)c(O)cc2[C@H]2c3cc(CN4CCCCC4)ccc3CC[C@@H]21
OUT: Condition met

IN: Is pKi at least 6? Consider CCC(=O)Nc1cccc2c1CC[C@H]1[C@H]2c2cc(O)c(Cl)cc2CCN1C
OUT: Condition met

IN: Is pKi at least 6? Consider CC(=O)N(Cc1ccc([C@H]2CN(C)CCc3cc(Cl)c(O)cc32)cc1)C1CCC1
OUT: Condition met

IN: Is pKi at least 6? Consider CN1CCc2cc(Cl)c(O)cc2[C@@H](c2ccc(CN(C)S(=O)(=O)c3ccccc3)cc2)C1
OUT: Condition met

IN: Is pKi at least 6? Consider CN1CCc2cc(Cl)c(O)cc2[C@H]2c3cccc(NC(=O)Nc4c(Cl)cccc4Cl)c3CC[C@@H]21
OUT: Condition met

IN: Is pKi at least 6? Consider CN1CCc2cc(Cl)c(O)cc2[C@H]2c3cccc(N)c3CC[C@@H]21
OUT: Condition not met

IN: Is pKi at least 6? Consider CN1CCc2cc(Cl)c(O)cc2[C@@H](c2ccc(CN(C3CCC3)S(C)(=O)=O)cc2)C1
OUT: Condition not met

IN: Is pKi at least 6? Consider CN1CCc2cc(Cl)c(O)cc2[C@@H](c2ccc(CNC3CCC3)cc2)C1
OUT: Condition not met

IN: Is pKi at least 6? Consider CCS(=O)(=O)Nc1cccc2c1CC[C@H]1[C@H]2c2cc(O)c(Cl)cc2CCN1C
OUT: Condition met

IN: Is pKi at least 6? Consider CCS(=O)(=O)Nc1ccc2c(c1)CC[C@H]1[C@H]2c2cc(O)c(Cl)cc2CCN1C
OUT: Condition not met

IN: Is pKi at least 6? Consider CN1CCc2cc(Cl)c(O)cc2[C@H]2c3cc(CN4CCN(c5ccccn5)CC4)ccc3CC[C@@H]21
OUT: Condition met

IN: Is pKi at least 6? Consider CN1CCc2cc(Cl)c(O)cc2[C@@H](c2ccc(CN(C)S(C)(=O)=O)cc2)C1
OUT: Condition not met

IN: Is pKi at least 6? Consider CN1CCc2cc(Cl)c(O)cc2[C@H]2c3cccc(NC(=O)C4CC4)c3CC[C@@H]21
OUT: Condition not met

Origin of the recorded values: ChEMBL document CHEMBL1156835
